Target: Atypical chemokine receptor 3 (Homo sapiens)
Sequence (P25106 whole entry): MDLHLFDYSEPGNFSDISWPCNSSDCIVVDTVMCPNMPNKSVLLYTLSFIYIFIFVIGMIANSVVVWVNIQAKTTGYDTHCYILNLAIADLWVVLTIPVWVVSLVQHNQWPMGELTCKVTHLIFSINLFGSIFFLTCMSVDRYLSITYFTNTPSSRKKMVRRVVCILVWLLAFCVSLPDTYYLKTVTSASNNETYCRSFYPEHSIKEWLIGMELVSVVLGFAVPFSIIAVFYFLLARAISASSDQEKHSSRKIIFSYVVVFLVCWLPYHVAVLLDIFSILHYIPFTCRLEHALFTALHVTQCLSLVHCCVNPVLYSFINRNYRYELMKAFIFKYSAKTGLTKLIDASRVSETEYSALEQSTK
Experiment: Agonist activity at human CXCR7 receptor expressed in CHOK1 cell membranes assessed as increase in beta-arrestin recruitment incubated for 30 mins
pEC50: −log10 of the molar value.
In this section we review reported pEC50 values for a set of compounds.

Sample records with pEC50:
smiles.data: NC(=O)C(c1ccccc1)(c1ccccc1)[C@@H]1CCN(CCOc2ccc(-c3nnco3)cc2)C1
system.name: Atypical chemokine receptor 3 (Homo sapiens)
pEC50: < 5.00
--
smiles.data: Cc1noc(-c2ccc(OCCN3CC[C@@H](C(C(N)=O)(c4ccccc4)c4ccccc4)C3)cc2)n1
system.name: Atypical chemokine receptor 3 (Homo sapiens)
pEC50: < 5.00

Proceeding to the next compound to report its pEC50.
Lookup: pEC50 / Atypical chemokine receptor 3 (Homo sapiens) / NC(=O)C(c1ccccc1)(c1ccccc1)[C@@H]1CCN(CCOc2ccc(C3=NCCO3)cc2)C1
< 5.00

Just for reference, ChEMBL document CHEMBL4616715 is where these values come from.
